Where do the numbers come from? From PubChem BioAssay (NCATS).

assay: BET inhibitor-based combinations targeting novel dependencies in MECOM-rearranged (r) AML: HNT-34 cell line (AID 2202234); conditions: HNT-34 AML viability, CellTiter-Glo luminescence, 48 h; series mostly up to 46 µM; note: nearly all actives have a fitted effect of over 35% in size
Records with an inconclusive call do not appear. The source made the active and inactive calls. Calls come from the whole dose curve; as a rule, active = well fitted inhibition curve with a large enough effect; inconclusive = small, poorly fitted or top-dose-only effect; inactive = no such curve, though single readings can be large or run the other way. Residues, ends and D or L forms follow the SMILES beside them.
Labels: active, inactive

molecule	classification
C[C@@H](O)[C@@H]1NC(=O)[C@H](CCCCN)NC(=O)[C@@H](Cc2c[nH]c3ccccc23)NC(=O)[C@H](Cc2ccccc2)NC(=O)[C@@H](NC(=O)[C@H](N)Cc2ccccc2)CSSC[C@@H](C(=O)N[C@H](CO)[C@@H](C)O)NC1=O	inactive
COC(=O)c1ccc([C@H]2c3[nH]c4ccccc4c3C[C@H](C(=O)OC)N2C(=O)CCl)cc1	active
N[C@@H](CCC(=O)O)C(=O)N[C@@H](Cc1c[nH]c2ccccc12)C(=O)O (H-Glu-Trp-OH)	inactive
CCC(=O)OCC(=O)C1(OC(=O)CC)C(C)CC2C3CCC4=CC(=O)C=CC4(C)C3(F)C(O)CC21C (stereo not given)	inactive
OC1CCC(Oc2cccc3cnc(Nc4ccc5nc[nH]c5c4)nc23)CC1 (stereo not given)	active
Cn1nccc1Nc1nccc(-c2cc3c(s2)C(C)(C)N(CCN2CCOCC2)C3=O)n1	active
Cn1cc(-c2cc(Oc3cc(F)c(NC(=O)C4(C(=O)Nc5ccccc5)CC4)cc3F)ccn2)cn1	active
CC(=O)OCC(=O)[C@@]12OC(C)(C)O[C@@H]1C[C@H]1[C@@H]3C[C@H](F)C4=CC(=O)C=C[C@]4(C)[C@@]3(F)[C@@H](O)C[C@@]12C	inactive
O=C(O)/C(S)=C/c1ccc(I)cc1	inactive
CNC(=O)Cn1cc(-c2ccc3c(c2)C(F)CC32NC(=O)N(CC(=O)N(Cc3ccc(F)cc3)[C@@H](C)C(F)(F)F)C2=O)cn1 (stereo not given in full)	active

---

assay: BET inhibitor-based combinations targeting novel dependencies in MECOM-rearranged (r) AML: MV-4-11 cell line (AID 2202233); details: MV-4-11 AML viability, CellTiter-Glo luminescence, 48 h; series mostly up to 46 µM; note: nearly all actives have a fitted effect of over 45% in size
Inconclusive results are not listed. Active and inactive are the calls of the source. The call rests on the fitted dose curve; in most records, active means well fitted inhibition curve with a large enough effect; inconclusive means small, poorly fitted or top-dose-only effect; inactive means no such curve, though single readings can be large or run the other way.
Labels: YES = active, NO = inactive

compound	classification
CN(C)N=Nc1nc[nH]c1C(N)=O	YES
CN(Cc1cnc2nc(N)nc(N)c2n1)c1ccc(C(=O)N[C@@H](CCC(=O)O)C(=O)O)cc1	YES
C=CC(=O)N1CCC(CNc2ncnc(N)c2-c2ccc(Oc3ccccc3)cc2)CC1	YES
Cc1ccc(NC(=O)c2ccc(CN3CC[C@H](N(C)C)C3)c(C(F)(F)F)c2)cc1Nc1nccc(-c2cncnc2)n1	YES
CCn1cc(-c2ccnc3[nH]c(-c4cccc(CN(C)C)c4)cc23)c(-c2ccc(NC(=O)N(C)C)cc2)n1	YES
O=C(/C=C/c1ccc(CN(CCO)CCc2c[nH]c3ccccc23)cc1)NO	YES
CC1=C(/C=C/C(C)=C/C=C/C(C)=C/C=C/C=C(C)/C=C/C=C(C)/C=C/C2=C(C)CCCC2(C)C)C(C)(C)CCC1	YES
CC(C)C1CCC(C(=O)N[C@H](Cc2ccccc2)C(=O)O)CC1 (stereo partly specified)	NO
Cc1c(-c2c(-c3ccc(F)o3)sc3ncnc(O[C@@H](Cc4ccccc4OCc4ccnn4CC(F)(F)F)C(=O)O)c23)ccc(OCCN2CCN(C)CC2)c1Cl	YES
C[C@@H]1C[C@H](N)C[C@H](c2ccncc2NC(=O)c2ccc(F)c(-c3c(F)cccc3F)n2)C1	YES
CCC(=O)Nc1cccc(Oc2nc(Nc3ccc(N4CCN(C)CC4)cc3OC)ncc2Cl)c1	YES
NC(=O)C1=C(O)[C@@]2(O)C(=O)C3=C(O)c4c(O)cccc4C[C@H]3C[C@H]2CC1=O	YES
COc1cc(OC)c(/C=C/S(=O)(=O)Cc2ccc(OC)c(OP(=O)(O)O)c2)c(OC)c1	YES
CC1(C)O[C@@H]2C[C@H]3[C@@H]4C[C@H](F)C5=CC(=O)C=C[C@]5(C)[C@@]4(F)[C@@H](O)C[C@]3(C)[C@]2(C(=O)CO)O1	NO
N#Cc1ccc(-c2c(-c3ncn[nH]3)sc(N3CCOCC3)c2C#N)c(F)c1	YES
COC(C)(C)CCn1nc(Nc2c(C)cccc2C)c2cnc(Nc3ccc(OCCN4CCCC4)c(F)c3)nc21	YES
O=c1oc2cc(O)ccc2s1	NO
CCCCCCCCCCCC1=C(O)C(=O)C=C(O)C1=O	YES
CC1=C2C[C@H]3[C@@H](CC[C@@H]4C[C@H](NS(C)(=O)=O)CC[C@@]43C)[C@@H]2CC[C@@]2(C1)O[C@@H]1C[C@H](C)CN[C@H]1[C@H]2C	YES
CCc1c(C(=O)NNC(=O)[C@@H](O)c2cc(F)cc(F)c2)ccc(O)c1C	NO
CC1(C)OCCn2c1nc1c(N3CCOCC3)nc(-c3cnc(N)nc3)nc12	YES
C=CC(=O)N1CCC(C2CCNc3c(C(N)=O)c(-c4ccc(Oc5ccccc5)cc4)nn32)CC1 (stereo unspecified)	YES
C[C@@H]1Cc2c([nH]c3ccccc23)[C@@H](c2c(F)cc(/C=C/C(=O)O)cc2F)N1CC(C)(C)F	NO
COc1ccccc1-c1cccc(-c2c(O)c3cc(C#N)c(Cl)cc3[nH]c2=O)c1	NO
COc1cc2c(Oc3ccc4[nH]c(C)cc4c3F)ccnc2cc1OCC1(N)CC1	YES
CCN(CC)CCNc1ccc(C)c2sc3ccccc3c(=O)c12	YES

---

assay: qHTS for Inhibitors of the Aldehyde Dehydrogenase Family (ALDH1A2, ALDH1A3, ALDH2, ALDH3A1) (AID 2061307); details: ALDH inhibition qHTS; series mostly up to 50.3 µM; note: nearly all actives have a fitted effect of over 50% in size; for Potency: test system not described further here; potency is the fitted concentration of half-maximal effect
Inconclusive results are not listed. The source made the active and inactive calls. Calls come from the whole dose curve; as a rule, active = well fitted inhibition curve with a large enough effect; inconclusive = small, poorly fitted or top-dose-only effect; inactive = no such curve, though single readings can be large or run the other way.

molecule	Potency
CC(=O)c1c(C)n(-c2cccc(C)c2)c2ccc(OC(=O)COc3ccccc3)cc12	inactive
N#Cc1ccc(CNc2nc(-c3ccccc3C(F)(F)F)nc3ccccc23)cc1	17.9 µM (active)
Cc1ccc(C)n1-c1ccccc1C(=O)O	inactive
O=[N+]([O-])c1ccc(NC(=S)N=Nc2c(O)[nH]c3ccccc23)cc1	7.12 µM (active)
CCOC(=O)OC(C)OC(=O)c1csc(-n2[nH]c(-c3ccc(F)c(F)c3)cc2=O)n1 (stereo not drawn)	inactive
Cc1ccc(CNc2ncnc3ccc(-c4ccoc4)cc23)o1	inactive
O=C(O)c1ccc(-c2ccc3ncnc(NCc4cccs4)c3c2)o1	inactive
O=C(CN1C(=O)N/C(=C\c2cn(-c3cccc(C(=O)O)c3)cn2)C1=O)Nc1ccccc1Cl	inactive

---

test: qHTS for Inhibitors of the Aldehyde Dehydrogenase Family (ALDH1A2, ALDH1A3, ALDH2, ALDH3A1) (AID 2061307); conditions: ALDH inhibition qHTS; series mostly up to 50.3 µM; note: nearly all actives have a fitted effect of over 50% in size
Inconclusive results are not listed. The source made the active and inactive calls. Calls follow the shape of the dose curve; as a rule, active = well fitted inhibition curve with a large enough effect; inconclusive = small, poorly fitted or top-dose-only effect; inactive = no such curve, though single readings can be large or run the other way.
Labels: t = active, f = inactive

compound	classification
Nc1nc2c(s1)C(c1ccccc1)CC(=O)N2 (stereo unspecified)	t
CCc1ccc(-c2nn3c(C)nnc3s2)cc1NC(=O)c1ccc(-c2cccc(Cl)c2)o1	t
COc1cc(O)c(C(CC(=O)N2CC(C)CC(C)C2)c2ccc(NC(C)=O)cc2)c(OC)c1 (stereo unspecified)	t
CN(Cc1ccco1)c1ncnc2ccc(-c3ccoc3)cc12	f
O=C(N/N=C/c1ccc(Sc2ccccn2)o1)c1cccc(F)c1	t
Cc1nn(CC(=O)N2CCN(c3cccc(C(F)(F)F)c3)CC2)c(=O)c2cc3sccc3n12	f
COc1ccc(CN2CCN(C(=O)c3cc4c(s3)CCC4)CC2)cc1	f
CCOC(=O)COc1ccc2c(c1)c(C(=O)c1ccccc1)c(C)n2-c1ccc(OC)cc1	f
CN(C)[S+](=O)([O-])c1ccc(-c2cncc(NC(=O)c3cccs3)c2)cc1	t
CCOc1ccc2[nH]c(=O)c(CN(Cc3nnnn3Cc3ccco3)C3CCCCC3)cc2c1	t
O=C(Nc1cncc(Cc2ccccc2)c1)c1ccc(-c2cccc([N+](=O)[O-])c2)o1	t
CC1=C[C@@H](CNC(C)C)[C@H](C(C)C)C[C@H]1Cc1nnc(-c2ccncc2)o1	f
COc1ccc(-n2ccc(C(=O)Nc3cccnc3OC)n2)cc1	f
O=C(Nc1nc(-c2ccccn2)cs1)C1CCCCC1	t
CCn1c(C(=O)NCCc2ccc(OC)cc2)cc2sccc21	t
O=C([C@H](Cc1ccc(O[S+](=O)([O-])c2cccnc2)cc1)N[S+](=O)([O-])c1cccc2cnccc12)N1CCN(c2ccccc2)CC1	f

---

test: BET inhibitor-based combinations targeting novel dependencies in MECOM-rearranged (r) AML: UCSD-AML1 cell line (AID 2202235); details: UCSD-AML1 AML cells viability, CellTiter-Glo, 48 h; series mostly up to 46 µM; note: nearly all actives have a fitted effect of over 40% in size
Records with an inconclusive call do not appear. Activity calls are given as the source filed them. Calls come from the whole dose curve; as a rule, active = well fitted inhibition curve with a large enough effect; inconclusive = small, poorly fitted or top-dose-only effect; inactive = no such curve, though single readings can be large or run the other way. Non-standard residues stand in square brackets, D forms with d. Residues, ends and D or L forms follow the SMILES beside them. *: point of attachment. Benzoyl(4-tBu) = CC(C)(C)c1ccc(C(=O)*)cc1; Dip = N[C@H](C(=O)O)C(c1ccccc1)c1ccccc1; Lys(Et2) = CCN(CC)CCCC[C@H](N)C(=O)O
Labels: Yes (active), No (inactive)

molecule	classification
CC(C)=CCC[C@](C)(O[C@@H]1O[C@H](CO[C@@H]2O[C@H](CO)[C@@H](O)[C@H](O)[C@H]2O)[C@@H](O)[C@H](O)[C@H]1O)[C@H]1CC[C@]2(C)[C@@H]1[C@H](O)C[C@@H]1[C@@]3(C)CC[C@H](O[C@@H]4O[C@H](CO)[C@@H](O)[C@H](O)[C@H]4O[C@@H]4O[C@H](CO)[C@@H](O)[C@H](O)[C@H]4O)C(C)(C)[C@@H]3CC[C@]12C	No
COc1cccc(-c2c(C)n(Cc3c(F)cccc3C(F)(F)F)c(=O)n(C[C@H](NCCCC(=O)O)c3ccccc3)c2=O)c1F	No
CN(C)CC[C@H](CSc1ccccc1)Nc1ccc(S(=O)(=O)NC(=O)c2ccc(N3CCN(Cc4ccccc4-c4ccc(Cl)cc4)CC3)cc2)cc1[N+](=O)[O-]	Yes
CC(C)n1c(=O)cc(N[C@@H](C)c2ccccc2)[nH]c1=O	No
c1ccc(-c2nn3c(c2-c2ccnc4cc(OCCN5CCOCC5)ccc24)CCC3)nc1	Yes
Cn1ncc(Cl)c1-c1cc(C(=O)N[C@H](CN)Cc2ccc(F)c(F)c2)sc1Cl	Yes
Cn1c(NCCN(CCO)CCCc2ccc([N+](=O)[O-])cc2)cc(=O)n(C)c1=O	No
C[C@]12CCC3=C4CCC(=O)C=C4CC[C@H]3[C@@H]1CC[C@@]2(O)CC#N	No
NCCCC[C@H](NC(=O)[C@@H](NC(=O)[C@H](Cc1c[nH]c2ccccc12)NC(=O)[C@H](CCCCN)NC(=O)[C@H](CCCCN)NC(=O)[C@H](Cc1c[nH]c2ccccc12)NC(=O)[C@H](Cc1c[nH]c2ccccc12)NC(=O)[C@H](CCCCN)NC(=O)[C@@H](N)CCCCN)C(c1ccccc1)c1ccccc1)C(N)=O (H-KKWWKKW[Dip]K-NH2)	No
COc1c(Nc2ncc(Cl)c(N[C@H]3[C@H](C(N)=O)[C@@H]4C=C[C@@H]3C4)n2)ccc2c1CCC(N1CCOCC1)CC2 (stereo partly drawn)	No
C[C@@H]1CCN(C(=O)CC#N)C[C@@H]1N(C)c1ncnc2[nH]ccc12	Yes
CC[C@H](CO)Nc1nc(NCc2ccccc2)c2ncn(C(C)C)c2n1	Yes
CCN(CC)CCCC[C@H](NC(=O)[C@H](CC(C)C)NC(=O)[C@H](C)NC(=O)[C@H](Cc1ccccc1)NC(=O)c1ccc(C(C)(C)C)cc1)C(=O)N[C@@H](CO)C(=O)OC ({Benzoyl(4-tBu)}-FAL[Lys(Et2)]S-OMe)	No
